Biological target: hGOAT (Homo sapiens, UniProt Q96T53)
Sequence (Q96T53 1-435): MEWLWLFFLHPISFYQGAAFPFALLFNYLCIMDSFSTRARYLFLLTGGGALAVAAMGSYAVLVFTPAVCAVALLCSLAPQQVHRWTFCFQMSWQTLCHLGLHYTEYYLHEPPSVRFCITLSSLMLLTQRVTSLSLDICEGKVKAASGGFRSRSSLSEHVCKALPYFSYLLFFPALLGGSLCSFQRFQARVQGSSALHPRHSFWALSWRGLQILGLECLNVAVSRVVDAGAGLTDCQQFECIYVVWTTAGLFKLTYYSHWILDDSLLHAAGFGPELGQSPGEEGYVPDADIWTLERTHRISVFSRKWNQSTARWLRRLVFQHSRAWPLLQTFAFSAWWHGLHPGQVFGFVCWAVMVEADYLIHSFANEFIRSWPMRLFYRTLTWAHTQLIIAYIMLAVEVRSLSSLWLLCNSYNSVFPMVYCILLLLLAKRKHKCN
Assay: Determination of hGOAT activity in HEK293 cells after incubation with test compound (acyl-ghrelin ELISA)
Details: HEK293 cells stably transfected with preproghrelin and human GOAT; octanoate-BSA 100 μM; 5 hours incubation; acyl-ghrelin in medium by ELISA; 8 compound concentrations
Protocol: Determination of hGOAT Activity in HEK293 Cells after Incubation with Test Compound HEK293 cells stably transfected with two expression vectors, one coding for preproghrelin cDNA and a second for the expression of human GOATcDNA are used as a cellular model. After feeding the cells with octanoic acid for 5 hours, acyl-ghrelin is measured in cell culture medium by an ELISA procedure. Cellline: Hek293 hGOAT/PPGhrl Clone #1B8Sodium octanoate, Sigma, Cat.-No. C5038 […]
Lab note: anything with IC50 below 1 nM is marked Condition met; values at 1 nM or higher are marked Condition not met.

# example entries with known answers
INSERT INTO assay_data (compound, measured_target, cat) VALUES
  ('Cc1nc2nonc2c(N)c1Cc1ccc(Br)c(C#N)c1', 'hGOAT (Homo sapiens, UniProt Q96T53)', 'Condition met'),
  ('Cc1nc2nonc2c(N)c1Cc1ccc(C(=O)NC(CO)C2CC2)cc1 (centres unmarked)', 'hGOAT (Homo sapiens, UniProt Q96T53)', 'Condition not met'),
  ('Cc1nc2nonc2c(N)c1C(=O)c1ccc(OC(F)(F)F)cc1', 'hGOAT (Homo sapiens, UniProt Q96T53)', 'Condition not met'),
  ('Cc1nc2nonc2c(N)c1Cc1ccc(S(C)(=O)=O)cc1', 'hGOAT (Homo sapiens, UniProt Q96T53)', 'Condition met'),
  ('Cc1nc2nonc2c(N)c1Cc1cccc(Br)c1', 'hGOAT (Homo sapiens, UniProt Q96T53)', 'Condition not met'),
  ('COc1cc(Br)ccc1Cc1c(C)nc2nonc2c1N', 'hGOAT (Homo sapiens, UniProt Q96T53)', 'Condition met'),
  ('Cc1nc2nonc2c(N)c1Cc1ccc(Cl)cc1', 'hGOAT (Homo sapiens, UniProt Q96T53)', 'Condition met'),
  ('Cc1nc2nonc2c(N)c1Cc1ccc(C(=O)NC2CCOC2)cc1 (centres unmarked)', 'hGOAT (Homo sapiens, UniProt Q96T53)', 'Condition not met');

Query: Threshold test, IC50 < 1 nM: `Cc1nc2nonc2c(N)c1Cc1ccc(CO)cc1`
Reply: Condition met

Query: Threshold test, IC50 < 1 nM: `Cc1nc2nonc2c(N)c1Cc1ccc(C(F)(F)F)cc1`
Reply: Condition met

Query: Threshold test, IC50 < 1 nM: `Cc1nc2nonc2c(N)c1Cc1cccn2c(C3CC3)nnc12`
Reply: Condition met

Query: Threshold test, IC50 < 1 nM: `Cc1nc2nonc2c(N)c1Cc1cccc(C#N)c1`
Reply: Condition not met

Query: Threshold test, IC50 < 1 nM: `Cc1nc2nonc2c(N)c1Cc1ccc(C#N)c(OCC(F)(F)F)c1`
Reply: Condition met

Query: Threshold test, IC50 < 1 nM: `Cc1nc2nonc2c(N)c1Cc1ccc(C(F)(F)F)n2cnnc12`
Reply: Condition met

Query: Threshold test, IC50 < 1 nM: `Cc1nc2nonc2c(N)c1Cc1ccc(C(F)(F)F)c(C#N)c1`
Reply: Condition met

Query: Threshold test, IC50 < 1 nM: `Nc1c(Cc2ccc(C(F)(F)F)cc2)c(C(F)F)nc2nonc12`
Reply: Condition met
